assay: self-splicing fitness, log relative to wild type (ln ratio); higher = more splicing; Tetrahymena group I intron in knt gene, E. coli kanamycin selection, DiMSum; sequences stand for … in CUCUCU…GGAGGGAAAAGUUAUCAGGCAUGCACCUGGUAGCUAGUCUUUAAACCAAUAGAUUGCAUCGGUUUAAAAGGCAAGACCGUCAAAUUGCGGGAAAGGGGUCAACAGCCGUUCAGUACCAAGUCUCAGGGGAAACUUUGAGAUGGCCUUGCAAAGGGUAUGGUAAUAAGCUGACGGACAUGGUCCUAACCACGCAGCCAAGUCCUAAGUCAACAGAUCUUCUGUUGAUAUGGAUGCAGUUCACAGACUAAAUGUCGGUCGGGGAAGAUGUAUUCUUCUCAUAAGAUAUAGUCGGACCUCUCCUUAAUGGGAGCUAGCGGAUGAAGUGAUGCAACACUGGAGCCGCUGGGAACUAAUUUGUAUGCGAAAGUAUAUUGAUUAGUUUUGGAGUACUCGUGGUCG; conditions: 30 °C;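 further: selection with 25 µg/mL kanamycin versus none on LB agar overnight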
# self-splicing fitness (ln) annotations

Some solved entries appear below for comparison.
// Input: "UAAAAGCAAUAUUACGUGAA" . Output its self-splicing fitness (ln) only.
-1.36

// Input: "UAGCAGCAAUAUUACGUGUG" . Output its self-splicing fitness (ln) only.
-1.63

// Input: "AACCAGCAAUAUUACGUAAC" . Output its self-splicing fitness (ln) only.
-2.5

Others:
// Input: "GCAUAGCAAUAUUACGAUUA" . Output its self-splicing fitness (ln) only.
-1.47

// Input: "UGUUAGCAAUAUUACGUCCG" . Output its self-splicing fitness (ln) only.
-0.342

// Input: "GUUUAGCAAUAUUACGCUUA" . Output its self-splicing fitness (ln) only.
-1.24

====

assay: self-splicing fitness, log relative to wild type (ln ratio); higher = more splicing; Tetrahymena group I intron in knt gene, E. coli kanamycin selection, DiMSum; sequences stand for … in CUCUCU…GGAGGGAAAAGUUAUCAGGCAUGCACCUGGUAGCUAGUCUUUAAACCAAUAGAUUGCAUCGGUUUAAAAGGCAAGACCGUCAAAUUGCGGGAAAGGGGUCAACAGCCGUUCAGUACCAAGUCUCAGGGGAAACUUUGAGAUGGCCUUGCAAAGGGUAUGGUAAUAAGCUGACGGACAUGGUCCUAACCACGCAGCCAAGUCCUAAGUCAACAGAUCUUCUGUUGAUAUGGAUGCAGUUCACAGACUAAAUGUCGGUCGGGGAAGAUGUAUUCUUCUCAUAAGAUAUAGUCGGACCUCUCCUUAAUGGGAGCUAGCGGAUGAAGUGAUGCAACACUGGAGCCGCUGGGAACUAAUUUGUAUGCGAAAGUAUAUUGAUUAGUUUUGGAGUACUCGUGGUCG; conditions: 37 °C
readout kind: self-splicing fitness (ln)

Some solved entries appear below for comparison.
// Input: "UUAAAGCAAUAUUACGAAAG" . Output its self-splicing fitness (ln) only.
-1.13

// Input: "AUGCAGCAAUAUUACGGUUC" . Output its self-splicing fitness (ln) only.
-1.83

// Input: "AGAAAGCAAUAUUACGAUAG" . Output its self-splicing fitness (ln) only.
-1.02

// Input: "AAACAGCAAUAUUACGUUAU" . Output its self-splicing fitness (ln) only.
-1.22

// Input: "GUGUAGCAAUAUUACGCAUG" . Output its self-splicing fitness (ln) only.
-2.67

Others:
// Input: "AGCAAGCAAUAUUACGCAGA" . Output its self-splicing fitness (ln) only.
-2.05

// Input: "UUACAGCAAUAUUACGAAGG" . Output its self-splicing fitness (ln) only.
-1.3

// Input: "GCUAAGCAAUAUUACGCGGU" . Output its self-splicing fitness (ln) only.
-2.72

====

experiment: self-splicing fitness, log relative to wild type (ln ratio); higher = more splicing; Tetrahymena group I intron in knt gene, E. coli kanamycin selection, DiMSum; sequences stand for … in CUCUCU…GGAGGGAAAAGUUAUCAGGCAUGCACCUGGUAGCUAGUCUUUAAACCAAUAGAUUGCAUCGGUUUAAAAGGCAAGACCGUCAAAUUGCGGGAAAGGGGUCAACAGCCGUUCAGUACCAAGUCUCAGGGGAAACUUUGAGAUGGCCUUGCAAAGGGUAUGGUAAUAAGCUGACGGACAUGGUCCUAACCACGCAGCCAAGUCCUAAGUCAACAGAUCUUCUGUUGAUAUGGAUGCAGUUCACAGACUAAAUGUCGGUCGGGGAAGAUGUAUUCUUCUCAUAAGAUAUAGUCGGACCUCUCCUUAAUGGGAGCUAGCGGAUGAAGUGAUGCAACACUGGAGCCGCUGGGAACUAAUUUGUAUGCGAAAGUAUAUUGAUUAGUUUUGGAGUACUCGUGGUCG; settings: 30 °C
Each entry gets NO if its self-splicing fitness (ln) stays under -3, and YES if its self-splicing fitness (ln) is -3 or above.

# count of solved cases: 2
Hi, just wondering whether "GUAAAGCAAUAUUACGUAUG" shows self-splicing fitness (ln) of -3 or higher.
NO

Hi, just wondering whether "UUACAGCAAUAUUACGGUGC" shows self-splicing fitness (ln) of -3 or higher.
NO

Others:
Hi, just wondering whether "AGUAAGCAAUAUUACGAUAU" shows self-splicing fitness (ln) of -3 or higher.
YES

Hi, just wondering whether "GUGAAGCAAUAUUACGGCAG" shows self-splicing fitness (ln) of -3 or higher.
YES

Hi, just wondering whether "UUGGAGCAAUAUUACGCAUU" shows self-splicing fitness (ln) of -3 or higher.
YES

Hi, just wondering whether "CCGCAGCAAUAUUACGUAAA" shows self-splicing fitness (ln) of -3 or higher.
NO

Hi, just wondering whether "UCACAGCAAUAUUACGUUAG" shows self-splicing fitness (ln) of -3 or higher.
YES

Hi, just wondering whether "UCGUAGCAAUAUUACGGUAA" shows self-splicing fitness (ln) of -3 or higher.
YES

Hi, just wondering whether "ACGCAGCAAUAUUACGGCGC" shows self-splicing fitness (ln) of -3 or higher.
NO

Hi, just wondering whether "GCAUAGCAAUAUUACGCGUG" shows self-splicing fitness (ln) of -3 or higher.
NO

Hi, just wondering whether "UAGUAGCAAUAUUACGUCCU" shows self-splicing fitness (ln) of -3 or higher.
YES

Hi, just wondering whether "AGGUAGCAAUAUUACGACAC" shows self-splicing fitness (ln) of -3 or higher.
YES

Hi, just wondering whether "GACGAGCAAUAUUACGAGGG" shows self-splicing fitness (ln) of -3 or higher.
NO

====

assay: self-splicing fitness, log relative to wild type (ln ratio); higher = more splicing; Tetrahymena group I intron in knt gene, E. coli kanamycin selection, DiMSum; sequences stand for … in CUCUCU…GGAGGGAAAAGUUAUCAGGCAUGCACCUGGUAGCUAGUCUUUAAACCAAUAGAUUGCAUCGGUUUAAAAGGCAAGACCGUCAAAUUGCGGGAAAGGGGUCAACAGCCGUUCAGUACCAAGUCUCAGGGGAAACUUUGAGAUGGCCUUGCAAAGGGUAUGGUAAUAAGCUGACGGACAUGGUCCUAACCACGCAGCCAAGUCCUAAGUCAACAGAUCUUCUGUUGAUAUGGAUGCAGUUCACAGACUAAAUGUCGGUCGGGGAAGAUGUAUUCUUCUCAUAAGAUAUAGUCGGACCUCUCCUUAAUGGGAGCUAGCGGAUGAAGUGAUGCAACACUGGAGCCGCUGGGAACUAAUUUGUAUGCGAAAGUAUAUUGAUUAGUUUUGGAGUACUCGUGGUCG; conditions: 37 °C
# self-splicing fitness (ln) annotations
Lab note: record just the number, no unit beside it.

Some solved entries appear below for comparison.
// Input: "GAACAGCAAUAUUACGUAUU" . Output its self-splicing fitness (ln) only.
-0.99

// Input: "CCUCAGCAAUAUUACGGCCG" . Output its self-splicing fitness (ln) only.
-0.442

// Input: "UCGGAGCAAUAUUACGAGAU" . Output its self-splicing fitness (ln) only.
-1.51

Others:
// Input: "UCUAAGCAAUAUUACGUCAG" . Output its self-splicing fitness (ln) only.
-0.611

// Input: "AGGGAGCAAUAUUACGUCAA" . Output its self-splicing fitness (ln) only.
-2.52

// Input: "ACCCAGCAAUAUUACGCGGU" . Output its self-splicing fitness (ln) only.
-3.42

// Input: "CCUGAGCAAUAUUACGGACC" . Output its self-splicing fitness (ln) only.
-3.02

// Input: "AUGUAGCAAUAUUACGACAU" . Output its self-splicing fitness (ln) only.
-0.557

// Input: "GAGAAGCAAUAUUACGAAUU" . Output its self-splicing fitness (ln) only.
-1.13

// Input: "UCUAAGCAAUAUUACGGAGU" . Output its self-splicing fitness (ln) only.
-0.505

// Input: "GUUUAGCAAUAUUACGGCCU" . Output its self-splicing fitness (ln) only.
0.714

// Input: "AUCGAGCAAUAUUACGUGCC" . Output its self-splicing fitness (ln) only.
-2.22

// Input: "AGCGAGCAAUAUUACGCGGA" . Output its self-splicing fitness (ln) only.
-2.45

// Input: "GUCGAGCAAUAUUACGUGAU" . Output its self-splicing fitness (ln) only.
-2.11

// Input: "CGUUAGCAAUAUUACGCUCU" . Output its self-splicing fitness (ln) only.
-1.07

// Input: "AAAAAGCAAUAUUACGUUUU" . Output its self-splicing fitness (ln) only.
-2.39
